- Test system: HLA-B*58:01
- Assay summary: IEDB peptide-MHC binding, purified MHC/direct/fluorescence; filed as Kd, often an IC50 or EC50 that approximates it; bounds were set here for any values at or beyond the usual limits of such assays
- Condition label: source organism: Mycobacterium tuberculosis variant bovis
Metric name: Kd

// Kd lookup, key: TPREAPYEL
≥ 20 µM

* * *

- Test system: HLA-B*51:01
- Assay summary: IEDB peptide-MHC binding, purified MHC/competitive/fluorescence; filed as Kd, often an IC50 or EC50 that approximates it; bounds were set here for any values at or beyond the usual limits of such assays
- Condition label: source organism: Orthohantavirus andesense
Metric name: Kd

// Kd lookup, key: QIQAGNFHW
≥ 20 µM

* * *

- Test system: HLA-C*12:03
- Assay summary: IEDB peptide-MHC binding, purified MHC/direct/fluorescence; filed as Kd, often an IC50 or EC50 that approximates it; bounds were set here for any values at or beyond the usual limits of such assays
- Condition label: source organism: Yellow fever virus
pKd: −log10 of the molar value.
Metric name: pKd

// pKd lookup, key: YMPDVLEKL
≤ 4.70

* * *

- Test system: HLA-A*02:01
- Assay summary: IEDB peptide-MHC binding, purified MHC/competitive/radioactivity; filed as Kd, often an IC50 or EC50 that approximates it; bounds were set here for any values at or beyond the usual limits of such assays
- Condition label: source organism: Triticum aestivum
Metric name: Kd (nM)
Field format: number, assumed nM, no unit text.

// Kd lookup, key: VLQQSTYQL
58

* * *

- Test system: HLA-A*02:19
- Assay summary: IEDB peptide-MHC binding, purified MHC/competitive/fluorescence; filed as Kd, often an IC50 or EC50 that approximates it; bounds were set here for any values at or beyond the usual limits of such assays
- Condition label: source organism: Homo sapiens
Metric name: Kd

For HLA-A*02:19, provide Kd of SSDLRSWTF please.
≥ 20 µM

* * *

- Test system: HLA-A*26:01
- Assay summary: IEDB peptide-MHC binding, purified MHC/competitive/radioactivity; filed as Kd, often an IC50 or EC50 that approximates it; bounds were set here for any values at or beyond the usual limits of such assays
- Condition label: source organism: Mammarenavirus choriomeningitidis
pKd: −log10 of the molar value.
Metric name: pKd

For HLA-A*26:01, provide pKd of TTDVKAAVI please.
≤ 4.11

* * *

- Test system: HLA-B*15:01
- Assay summary: IEDB peptide-MHC binding, purified MHC/competitive/radioactivity; filed as Kd, often an IC50 or EC50 that approximates it; bounds were set here for any values at or beyond the usual limits of such assays
- Condition label: source organism: Vaccinia virus Copenhagen
Metric name: Kd (nM)
Field format: number, assumed nM, no unit text.

// Kd lookup, key: LAKKSYVVF
97.3

// Kd lookup, key: LLSLEIVFF
142

// Kd lookup, key: ISVLTGSSI
34.3

// Kd lookup, key: SIRSMSRSI
362

* * *

- Test system: HLA-A*02:19
- Assay summary: IEDB peptide-MHC binding, purified MHC/competitive/fluorescence; filed as Kd, often an IC50 or EC50 that approximates it; bounds were set here for any values at or beyond the usual limits of such assays
- Condition label: source organism: Encephalitozoon cuniculi GB-M1
Metric name: pKd
Quick note: pKd means taking -log10 of the concentration in moles per liter.

// pKd lookup, key: GVYGGLCLA
6.31
